# test_protocol: viability gain of MRP-1-high H69AR cells under doxorubicin, pilot screen, MRP-1 activator project, CellTiter-Glo, duplicate (AID 807);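 further: compound pretreatment 18-22 h then 72 h combined with doxorubicin; 0% = doxorubicin alone and 100% = vehicle without doxorubicin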
# condition_context: H69AR viability with doxorubicin, CellTiter-Glo luminescence; at 10 µM; stronger effect = higher value
measurement_label: viability increase (%)
Report the value in % with no unit label.

For this molecule ( `c1ccc(COc2nsnc2N2CCOCC2)cc1` ), measured viability increase is -1.67

For this molecule ( `CC(C)(C)c1ccc(NC(=O)NCc2ccco2)cc1` ), measured viability increase is -5

For this molecule ( `O=C(COc1ccccc1)N1CCN(S(=O)(=O)c2cccs2)CC1` ), measured viability increase is -0.82

For this molecule ( `Cn1c(=O)oc2cc(S(=O)(=O)N3CCC(N4CCCCC4)CC3)ccc21` ), measured viability increase is -1.67

For this molecule ( `CCc1ccccc1NC(=O)c1cc2sccc2n1C` ), measured viability increase is 1.11

For this molecule ( COC(=O)C1=C(C)N2C(=O)CSC2=NC1c1ccc2c(c1)OCO2 (centres undefined) ), measured viability increase is 0.55

For this molecule ( `N#CCC(=O)Nc1sc2c(c1C(N)=O)CCCC2` ), measured viability increase is -1.93

For this molecule ( `O=C(NCS(=O)(=O)c1ccccc1)c1ccccc1` ), measured viability increase is -0.04

For this molecule ( `CCOC(=O)N1CCN(C(=O)CN(c2cc(C(F)(F)F)ccc2Cl)S(C)(=O)=O)CC1` ), measured viability increase is -1.79

====

# test_protocol: inhibitors of the yeast RAM network, pilot screen, dse1pr::URA3 reporter, 5-FOA selection (AID 869);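 further: 0% = DMSO wells with no growth and 100% = 10 µM 1-NA-PP1 with full growth; RAM network block rescues cells from 5-FOA so hits raise OD615 growth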
# condition_context: S. cerevisiae dse1pr::URA3 5-FOA growth, OD615, 2 d; at 10 µM; stronger effect = higher value; strain carries analog-sensitive mutant Cbk1 kinase
measurement_label: inhibition (%)
Report the value in % with no unit label.

For this molecule ( `COc1ccccc1N(CC(=O)Nc1ccc2c(c1)OCO2)S(=O)(=O)c1ccccc1` ), measured inhibition is 0.8

For this molecule ( `Cc1cccc(NC(=O)c2ccc(S(=O)(=O)N3CCCCC3)cc2)n1` ), measured inhibition is -0.09

For this molecule ( `CC(=O)Nn1cc2c(=O)n(C)c(=O)n(C)c2c1` ), measured inhibition is 1.68

For this molecule ( `CCOC(=O)CSc1nnc(Cn2c(=O)sc3ccccc32)n1-c1ccccc1C` ), measured inhibition is 2.26

For this molecule ( O=C(NCCCN1CCC(Cc2ccccc2)CC1)C1CCC(=O)N1C1CCCC1 (stereo not drawn) ), measured inhibition is 0.3

For this molecule ( `CCCc1nnc(SCC(=O)O)n1/N=C/c1ccc2c(c1)OCO2` ), measured inhibition is 0.54

For this molecule ( `CCOCCn1c(SCc2cccc(C)c2)nc2c1c(=O)[nH]c(=O)n2C` ), measured inhibition is 0.905

For this molecule ( O=C(O)CC(C(=O)NC1CCCCC1)C1CCCO1 (stereo not drawn) ), measured inhibition is 0.36

====

# test_protocol: Restrictive medium S. cerevisiae growth inhibition, OD615, pilot screen of yeast lifespan reduction project, restrictive growth control (AID 706);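 further: modified DeaD lifespan yeast strain shifted to restrictive glucose medium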
# condition_context: OD615, 48 h, at 10 µM, stronger effect = higher value
measurement_label: growth inhibition (%)
Report the value in % with no unit label.

For this compound ( `Cc1cc(NC(=O)CSc2c(C)[nH]c3ccccc23)no1` ), measured growth inhibition is -4.25

For this compound ( CC1Cc2nc(SCC(=O)N3CCOCC3)n(-c3ccccc3)c(=O)c2S1 (stereo not given) ), measured growth inhibition is -11.7

For this compound ( `Cn1nc(-c2ccc(Cl)cc2)c2cc(C(=O)N3CCOCC3)sc21` ), measured growth inhibition is 4.78

For this compound ( COc1ccc(C2c3c(oc4ccc(F)cc4c3=O)C(=O)N2CCN2CCOCC2)cc1OC (stereo not given) ), measured growth inhibition is 4.3

For this compound ( `COC(=O)c1ccc(-n2nnnc2SCC(=O)N2CCCCC2)cc1` ), measured growth inhibition is -21.9

For this compound ( `COc1ccc(C(=O)Nc2c(N)nc(SCC(=O)N3CCCCCC3)[nH]c2=O)cc1OC` ), measured growth inhibition is -3.33

For this compound ( `CN(C)c1ccc(C(=O)Nc2nc3c(s2)CCCC3)cc1` ), measured growth inhibition is -3.03

For this compound ( `Nc1nonc1C(=O)NCCc1ccccc1` ), measured growth inhibition is 6.3

For this compound ( `Cc1cc(C(F)(F)F)n2ncc(C(=O)O)c2n1` ), measured growth inhibition is 0.105

For this compound ( `COc1ccc(OCC(=O)Nc2ccccc2OC)cc1` ), measured growth inhibition is 7.31

For this compound ( `O=C(CCCc1c[nH]c2ccccc12)N1CCN(c2ccc(N3CCOCC3)nn2)CC1` ), measured growth inhibition is -3.36

For this compound ( COc1ccc(OC)c(NC2c3ccccc3C(=O)N2Cc2ccc3c(c2)OCO3)c1 (stereo not given) ), measured growth inhibition is -3.93

For this compound ( `COc1cccc(-c2nc(C(N)=O)c3[nH]c(=O)n(-c4ccccc4)c3n2)c1OC` ), measured growth inhibition is -8.02

For this compound ( `Cn1c(CCNC(=O)c2ccc(F)cc2)nc2ccccc21` ), measured growth inhibition is -11

For this compound ( `CC(=O)N1CCc2c(sc(NC(=O)c3ccc4c(c3)OCCO4)c2C#N)C1` ), measured growth inhibition is -8.73
